study target: UniProt Q8VGB9
Sequence (Q8VGB9 as listed by the source): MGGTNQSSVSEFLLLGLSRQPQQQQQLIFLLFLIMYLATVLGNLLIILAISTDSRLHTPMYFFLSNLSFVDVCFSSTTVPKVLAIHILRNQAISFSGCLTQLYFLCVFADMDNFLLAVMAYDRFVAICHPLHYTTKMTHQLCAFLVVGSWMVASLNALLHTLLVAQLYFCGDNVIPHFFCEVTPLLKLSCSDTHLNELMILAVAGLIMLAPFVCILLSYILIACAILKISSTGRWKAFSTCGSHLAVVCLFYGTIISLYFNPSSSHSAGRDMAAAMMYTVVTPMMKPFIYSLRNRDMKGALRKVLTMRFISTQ
measurement parameters: stereoisomer not certain
Thanks in advance; please answer with one of these: T (active), F (inactive)

CCCCCC(C=O)=Cc1ccccc1 : F

Q: Assay result, entry CCC=CCCCCC=O — outcome?
Ans: F

Q: Assay result, entry CC(=O)OC1(C)CCC23CC1C(C)(C)C2CCC3C (stereo not drawn) — outcome?
Ans: F

Q: Assay result, entry CCCCCCO — outcome?
Ans: T

---

study target: OR2B11 (Homo sapiens)
measurement parameters: stereoisomer not certain
measurement kind: odorant receptor agonist call

Here's what some known entries look like.
C1CCC(SSC2CCCCC2)CC1 : active
CC1CCCCCCCCCCCCC(=O)C1 (stereo not given) : inactive
CCCCCCC=CCCC=O : inactive
CC1=NC(C)C(C)S1 (stereo not given) : inactive
CCC(S)C(C)CO (stereo not given) : inactive
CCCCC(S)C(C)CO (stereo not given) : inactive
c1ccc2ncccc2c1 : active
CCCCCC(S)C(C)CO (stereo not given) : inactive

Give one value of odorant receptor agonist call per listed molecule.
1. CC1=C(O)C(=O)OC1C (stereo not given)
2. CCCCCC(=O)C(C)C(C)=O (stereo not given)
3. CC1=C(O)C(=O)C(C)O1 (stereo not given)
4. CC(CO)CS (stereo not given)
5. O=c1ccc2ccccc2o1

Ans:
1. inactive
2. inactive
3. inactive
4. inactive
5. active

Give one value of odorant receptor agonist call per listed molecule.
1. Cc1cnc(C)c(C)n1
2. CCCC(S)CCOC(C)=O (stereo not given)

Ans:
1: inactive; 2: inactive

---

Tested on: A0A140T8K0
measurement parameters: stereoisomer not certain
Thanks in advance; please answer with one of these: active, inactive

C=C(CC)CCCC(C)(C)O : inactive
OCCc1ccccc1 : inactive
C1CCOCC1 : inactive
CCCCCCCCC(=O)O : inactive
CCCCCOC(=O)CCCCC : inactive
CCCCCOC(=O)CCC : inactive
C1CCOC1 : inactive
CCN(CC)CC : inactive
Cc1ccc(C(C)C)cc1 : inactive
CCc1nccnc1CC : inactive

Q: Assay result, entry CCCCCC(C=O)=Cc1ccccc1 — outcome?
Ans: inactive

Q: Assay result, entry CCCCCCCCO — outcome?
Ans: inactive

Q: Assay result, entry CCCCCCCCCO — outcome?
Ans: inactive

Q: Assay result, entry CCCCCCOC(C)=O — outcome?
Ans: inactive

Q: Assay result, entry O=C([O-])CCCCCCCC(=O)[O-].[H+].[H+] — outcome?
Ans: inactive

Q: Assay result, entry CC12CCC(CC1=O)C2(C)C (stereo not drawn) — outcome?
Ans: inactive

Q: Assay result, entry CC=CC(=O)C1=C(C)CCCC1(C)C — outcome?
Ans: inactive

Q: Assay result, entry CC(=O)OCCc1ccccc1 — outcome?
Ans: inactive

Q: Assay result, entry CCCCCCCCS — outcome?
Ans: inactive

Q: Assay result, entry OCCCCCCCCCO — outcome?
Ans: inactive

Q: Assay result, entry CCC(C)c1nccnc1OC (stereo not drawn) — outcome?
Ans: inactive

Q: Assay result, entry CCCCCC=O — outcome?
Ans: inactive

Q: Assay result, entry CCCC(C)C(=O)OCC (stereo not drawn) — outcome?
Ans: inactive

Q: Assay result, entry CCCCCCC(C)=O — outcome?
Ans: inactive

Q: Assay result, entry O=C(O)C1CCC1 — outcome?
Ans: inactive

Q: Assay result, entry CC(C)=CCCC(C)=CCO — outcome?
Ans: inactive

Q: Assay result, entry CC(=O)Oc1ccccc1 — outcome?
Ans: inactive

Q: Assay result, entry CC(C)CCN — outcome?
Ans: inactive

Q: Assay result, entry CCCCCCCCCC=CC=O — outcome?
Ans: inactive

Q: Assay result, entry Cc1ccc(C(C)C)c(O)c1 — outcome?
Ans: inactive

Q: Assay result, entry CCCCCCCCCS — outcome?
Ans: inactive

Q: Assay result, entry O=C(O)CCCCCCCCC(=O)O — outcome?
Ans: active

Q: Assay result, entry CC(CC=O)CCCC(C)(C)O (stereo not drawn) — outcome?
Ans: inactive

---

study target: UniProt Q7TRW1
Sequence (Q7TRW1 as listed by the source): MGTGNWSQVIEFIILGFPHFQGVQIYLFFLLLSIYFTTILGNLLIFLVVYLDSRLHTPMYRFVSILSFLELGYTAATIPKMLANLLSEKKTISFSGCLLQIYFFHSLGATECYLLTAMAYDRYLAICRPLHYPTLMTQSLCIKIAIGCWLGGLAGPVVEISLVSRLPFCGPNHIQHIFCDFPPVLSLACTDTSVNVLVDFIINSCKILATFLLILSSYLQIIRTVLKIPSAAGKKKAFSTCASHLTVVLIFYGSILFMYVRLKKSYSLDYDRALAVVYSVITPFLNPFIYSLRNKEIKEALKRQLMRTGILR
measurement parameters: stereoisomer not certain
measurement kind: odorant receptor agonist call

Here's what some known entries look like.
CCCCCCOC(C)=O : inactive
CCCCCCCCCC(=O)[O-].[H+] : inactive
CCC(=O)O : inactive
CC(=O)Oc1ccccc1 : inactive
CCCCCCCCO : inactive

Give one value of odorant receptor agonist call per listed compound.
1. O=c1ccc2ccccc2o1
2. CCCCCCCCCCO
3. C=CCOC(=O)CCCCCC
4. O=C1CCOc2ccccc21
5. CCCCCCC(C)=O
6. CC(C)=CCCC(C)CCO (stereo not given)
7. CCC(C(=O)O)c1ccccc1 (stereo not given)

Ans:
["inactive", "inactive", "inactive", "inactive", "inactive", "inactive", "inactive"]

Give one value of odorant receptor agonist call per listed compound.
1. CCCCCCCCS
2. O=C1Cc2ccccc2O1

Ans:
["inactive", "inactive"]

Give one value of odorant receptor agonist call per listed compound.
1. CC12CCC(CC1=O)C2(C)C (stereo not given)
2. CCCCC(=O)O
3. CC(C)=CCCC(C)=CCO
4. C=C(C)C1CCC(C)C(=O)C1 (stereo not given)
5. O=C(c1ccccc1)c1ccccc1
6. CCCCCC=O
7. CCCCCCCCCS
8. c1ccccc1

Ans:
1: inactive; 2: inactive; 3: inactive; 4: inactive; 5: inactive; 6: inactive; 7: inactive; 8: inactive

Give one value of odorant receptor agonist call per listed compound.
1. CCCCC(=O)CC
2. CCCCCCCCCO
3. CCCCCC1=C(C)CCC1=O

Ans:
1: inactive; 2: inactive; 3: inactive

---

study target: OR8S1 (Homo sapiens) (UniProt Q8NH09)
Sequence (whole entry): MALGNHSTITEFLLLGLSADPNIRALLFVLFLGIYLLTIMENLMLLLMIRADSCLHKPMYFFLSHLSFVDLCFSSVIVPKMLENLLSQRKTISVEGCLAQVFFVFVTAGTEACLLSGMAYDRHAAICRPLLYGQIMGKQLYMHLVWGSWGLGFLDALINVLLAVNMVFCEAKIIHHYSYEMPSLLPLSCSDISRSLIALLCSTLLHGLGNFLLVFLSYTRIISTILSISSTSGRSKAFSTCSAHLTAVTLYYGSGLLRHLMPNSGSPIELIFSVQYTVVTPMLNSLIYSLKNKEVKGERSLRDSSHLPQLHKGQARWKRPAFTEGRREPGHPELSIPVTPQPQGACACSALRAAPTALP
measurement parameters: stereoisomer not certain
measurement kind: odorant receptor agonist call

Here's what some known entries look like.
CC1=C(O)C(=O)C(C)O1 (stereo unspecified) : inactive
CC1=C(O)C(=O)OC1C (stereo unspecified) : inactive
CCC(S)C(C)CO (stereo unspecified) : inactive
CCC1OC(=O)C(O)=C1C (stereo unspecified) : inactive
CCC1OC(C)=C(O)C1=O (stereo unspecified) : inactive

Continue with the next compound.
Q: Give its odorant receptor agonist call value. Item: CC1CCCCCCCCCCCCC(=O)C1 (stereo unspecified)
Ans: inactive

---

study target: OR5K1 (Homo sapiens) (UniProt Q8NHB7)
Sequence (Q8NHB7 whole entry): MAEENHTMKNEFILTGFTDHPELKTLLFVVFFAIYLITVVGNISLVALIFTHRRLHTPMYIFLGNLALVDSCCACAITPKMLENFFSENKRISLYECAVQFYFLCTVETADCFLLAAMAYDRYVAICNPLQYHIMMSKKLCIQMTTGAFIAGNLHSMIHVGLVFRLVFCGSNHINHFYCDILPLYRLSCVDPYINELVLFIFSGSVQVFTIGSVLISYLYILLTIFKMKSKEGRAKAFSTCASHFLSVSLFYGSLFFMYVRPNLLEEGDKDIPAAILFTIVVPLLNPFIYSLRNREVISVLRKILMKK
measurement parameters: stereoisomer not certain
Thanks in advance; please answer with one of these: Yes for active, No for inactive

The examples below pair each entry with its known result.
C=CC(O)CCCCC (stereo not drawn) : No
CCCCC=CC=CC=O : No
CCCCC=CC=O : No
COc1nccnc1C(C)C : Yes

Q: Assay result, entry CCCCCCCCCC(=O)[O-].[H+] — outcome?
Ans: No

Q: Assay result, entry C=CC(=O)CCCCC — outcome?
Ans: No

Q: Assay result, entry CCOC(=O)CC(C)C — outcome?
Ans: No

Q: Assay result, entry CCC=CCCC=CCO — outcome?
Ans: No

Q: Assay result, entry Cc1cnc(C)c(C)n1 — outcome?
Ans: Yes

---

study target: OR13G1 (Homo sapiens) (UniProt Q8NGZ3)
Sequence (Q8NGZ3 whole entry): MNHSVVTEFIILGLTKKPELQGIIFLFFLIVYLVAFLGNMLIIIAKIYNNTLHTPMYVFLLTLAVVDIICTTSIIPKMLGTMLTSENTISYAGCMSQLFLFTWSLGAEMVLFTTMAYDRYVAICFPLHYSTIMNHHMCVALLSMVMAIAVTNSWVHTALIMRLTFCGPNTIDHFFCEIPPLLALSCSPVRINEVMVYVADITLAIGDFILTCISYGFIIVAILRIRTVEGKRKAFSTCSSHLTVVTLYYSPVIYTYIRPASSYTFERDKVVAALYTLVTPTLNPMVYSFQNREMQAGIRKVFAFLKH
measurement parameters: stereoisomer not certain
measurement kind: odorant receptor agonist call

Here's what some known entries look like.
CCC1OC(=O)C(O)=C1C (stereo unspecified) : inactive
CCCCC(S)C(C)CO (stereo unspecified) : inactive
CC(=O)c1c(C)c([N+](=O)[O-])c(C(C)(C)C)c([N+](=O)[O-])c1C : inactive
Cc1cnc(C)c(C)n1 : inactive
CCCCCC(S)C(C)CO (stereo unspecified) : inactive

Give one value of odorant receptor agonist call per listed molecule.
1. CC(CO)CS (stereo unspecified)
2. CCC(S)C(C)CO (stereo unspecified)
3. CCCC(S)CCOC(C)=O (stereo unspecified)
4. CC1=C(O)C(=O)OC1C (stereo unspecified)
5. CC1CCCCCCCCCCCCC(=O)C1 (stereo unspecified)
6. CCC1OC(C)=C(O)C1=O (stereo unspecified)

Ans:
inactive
inactive
inactive
inactive
inactive
inactive

---

study target: OR2J1 (Homo sapiens)
measurement parameters: stereoisomer not certain
measurement kind: odorant receptor agonist call

Here's what some known entries look like.
CC1=C(O)C(=O)OC1C (centres undefined) : inactive
CC(CO)CS (centres undefined) : inactive
CCC(S)C(C)CO (centres undefined) : inactive
CC1=C(O)C(=O)C(C)O1 (centres undefined) : inactive

Give one value of odorant receptor agonist call per listed molecule.
1. CC1=NC(C)C(C)S1 (centres undefined)
2. CCCCCCC=CCCC=O
3. CCCCC(S)C(C)CO (centres undefined)
4. CCC1OC(=O)C(O)=C1C (centres undefined)
5. Cc1cnc(C)c(C)n1

Ans:
inactive
inactive
inactive
inactive
inactive
